tested on: OVCAR-4 ovarian; experiment: NCI-60 one-dose screen, 48 h; settings: 10 µM unless noted
The panel holds about 83,000 compounds, 20% with a hit somewhere; the sample as a whole holds those more often. Calls of active or inactive are those of the source. Rule for the calls: active = growth percent below 10; inactive = the rest.
Permitted responses: 1.0 = active, 0.0 = inactive

{"Molecule": "O=C(/C=C/c1ccc(Cl)cc1)/C=C/c1cc2ccccc2[nH]c1=O", "Subject of test": "OVCAR-4 ovarian", "Cat": 0.0}
{"Molecule": "CC1=C(NCCN2CCCC2)C(=O)c2c(OCc3ccc(F)c(Cl)c3)cccc2C1=O", "Subject of test": "OVCAR-4 ovarian", "Cat": 0.0}
{"Molecule": "CC/C(Cc1ccccc1)=C(\\c1ccc(OCCN2CCCC2)cc1)c1ccc(OC(C)=O)cc1", "Subject of test": "OVCAR-4 ovarian", "Cat": 0.0}
{"Molecule": "C[C@@H]1CCC2=C(CCC[C@]2(C)C(=O)O)[C@@]1(C)CCc1ccoc1", "Subject of test": "OVCAR-4 ovarian", "Cat": 0.0}
{"Molecule": "CC(C)c1c(C(=O)Nc2ccccc2)c(-c2ccccc2)c(-c2ccc(F)cc2)n1CC[C@@H]1CC=CC(=O)O1", "Subject of test": "OVCAR-4 ovarian", "Cat": 0.0}

IN: How did this test come out for `CN1CCN(Cc2ccc(NC(=O)c3cncc(C#Cc4cncc5nccnc45)c3)cc2C(F)(F)F)CC1` ?
OUT: 0.0

IN: Try the molecule `COc1cccc(/C=C2/C(=O)N(Cc3ccco3)SC2=S)c1OC`
OUT: 0.0

IN: Quick one: `O=C(CN1CCN(c2cc3c(cc2F)c(=O)c(C(=O)O)cn3C2CC2)CC1)Nc1nc(-c2ccccc2)cs1`
OUT: 0.0

IN: Another molecule: `CN1/C(=C\C=C\C2=[N+](C)c3ccccc3C2(C)C)C(C)(C)c2ccccc21`
OUT: 0.0

IN: Lookup CCN(CC)CC(O)c1cc(-c2ccc(Cl)cc2)nc2c(C)c(Cl)ccc12 (stereo not given)
OUT: 1.0

IN: Consider next the molecule `O=C(Cc1ccccc1)c1ccc(Cl)cc1` in the same way.
OUT: 0.0

IN: Okay, and `CCCCCn1cnc2c(=S)nc[nH]c21` ?
OUT: 0.0

IN: And for `COc1cccc(-n2cc(-c3nc(Nc4cc(C)[nH]n4)c4ccccc4n3)nn2)c1` ?
OUT: 0.0

IN: Same question, CCCCCCCCCCCCS(=O)CC(C)O (stereo not given) this time
OUT: 0.0

IN: Entry to check: OCC1C2C=CC(C2)C1CO (stereo not given)
OUT: 0.0
